Tested on: morningglory (Ipomoea spp.)
EXPERIMENT_SUMMARY: Test A preemergence, morningglory
Type: in vivo
STATED_CONDITIONS: 500 g ai/ha, 0 to 100 scale (0 no effect, 100 complete control)
PROPERTY_MEASURED: Plant response rating, Morningglory

Record excerpt, results attached:
| COMPOUND | REPORTED |
| --- | --- |
| CC1(C)CC(S(=O)(=O)Cc2c(C(F)(F)Cl)nc3n(c2=O)CCC3)=NO1 | 50 |
| CC1(C)CC(S(=O)(=O)Cc2c(C(F)(F)F)nc3cnccn3c2=O)=NO1 | 0 |
| CC1(C)CC(S(=O)(=O)Cc2c(C(F)(F)C(F)(F)F)nc3n(c2=O)CCCO3)=NO1 | 50 |

Ask | State the measured Plant response rating, Morningglory (morningglory (Ipomoea spp.)) of CC1(C)CC(S(=O)(=O)Cc2c(C(F)(F)F)nc3cccnn3c2=O)=NO1
Reply | 0

Ask | State the measured Plant response rating, Morningglory (morningglory (Ipomoea spp.)) of CC1(C)CC([S+]([O-])Cc2c(C(F)(F)F)nc3ccon3c2=O)=NO1 (centres unmarked)
Reply | 0

Ask | State the measured Plant response rating, Morningglory (morningglory (Ipomoea spp.)) of CC1(C)CC([S+]([O-])Cc2c(C(F)(F)F)nc3n(c2=O)CCS3)=NO1 (centres unmarked)
Reply | 0

Ask | State the measured Plant response rating, Morningglory (morningglory (Ipomoea spp.)) of CC1(C)CC(S(=O)(=O)Cc2c(C(F)(F)F)nc3n(c2=O)CCCC3)=NO1
Reply | 90

Ask | State the measured Plant response rating, Morningglory (morningglory (Ipomoea spp.)) of CC1(C)CC([S+]([O-])Cc2c(C(F)(F)C(F)(F)F)nc3n(c2=O)CCS3)=NO1 (centres unmarked)
Reply | 0
